Ref: patent US20220056125A1

Target: T1, human PAR-2 (human, UniProt P55085 26-397)
T1 sequence: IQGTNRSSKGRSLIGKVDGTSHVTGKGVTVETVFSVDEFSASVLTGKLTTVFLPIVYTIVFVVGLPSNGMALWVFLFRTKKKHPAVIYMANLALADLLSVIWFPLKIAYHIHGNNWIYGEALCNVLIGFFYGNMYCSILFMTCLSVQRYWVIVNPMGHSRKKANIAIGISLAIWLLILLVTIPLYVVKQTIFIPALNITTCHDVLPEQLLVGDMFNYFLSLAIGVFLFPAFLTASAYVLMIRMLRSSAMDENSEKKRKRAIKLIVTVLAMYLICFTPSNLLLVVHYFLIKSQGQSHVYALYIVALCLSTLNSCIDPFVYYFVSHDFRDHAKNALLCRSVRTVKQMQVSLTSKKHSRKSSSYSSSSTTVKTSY
Test: cell-based or functional assay
observation type: PAR-2 β-arrestin cell based assay IC50, 2 µM SLIGKV (nM)
Note: unit nM is implicit; provide only the numeric part.

## Input Looking for the measured PAR-2 β-arrestin cell based assay IC50, 2 µM SLIGKV of P24E930 (antibody, human IgG4 S228P, kappa, V domains shown) VH: QVQLVQSGAEVKKPGSSVKVSCKASGFSLSSYAISWVRQAPGQGLEWMGVIWGNGNVYYAQKFQGRVTITADESTSTAYMELSSLRSEDTAVYYCARWKGYKDYPFDYWGQGTLVTVSS VL: EIVLTQSPATLSLSPGERATLSCRASQNVYKWLDWYQQKPGQAPRLLIYNAYSRATGIPARFSGSGSGRDFTLTISSLEPEDFAVYYCQQHGSGWTFGGGTKVEIKR , can you help?
## Output 1.4

## Input Looking for the measured PAR-2 β-arrestin cell based assay IC50, 2 µM SLIGKV of P24E917 (antibody, human IgG4 S228P, kappa, V domains shown) VH: QVQLVQSGAEVKKPGSSVKVSCKASGFSLSSYAISWVRQAPGQGLEWMGVIWGNGNTYYAQKFQGRVTITADESTSTAYMELSSLRSEDTAVYYCARWKGYKDYPFDYWGQGTLVTVSS VL: EIVLTQSPATLSLSPGERATLSCKASQNVYKWLDWYQQKPGQAPRLLIYNAYSLATGIPARFSGSGSGRDFTLTISSLEPEDFAVYYCQQHGSGWTFGGGTKVEIKR , can you help?
## Output 0.93

## Input Looking for the measured PAR-2 β-arrestin cell based assay IC50, 2 µM SLIGKV of P24E300 (antibody, human IgG4 S228P, kappa, V domains shown) VH: QVQLVQSGAEVKKPGSSVKVSCKASGFSLSSYAISWVRQAPGQGLEWMGVIWGNGNTYYAQKFQGRVTITADESTSTAYMELSSLRSEDTAVYYCARWRGWKDYPFDYWGQGTLVTVSS VL: EIVLTQSPATLSLSPGERATLSCKASQNIYKWLDWYQQKPGQAPRLLIYNTNSLATGIPARFSGSGSGRDFTLTISSLEPEDFAVYYCLQHNSGWTFGGGTKVEIKR , can you help?
## Output 1.3
